The following molecules each carry a recorded AC50 for Cytochrome P450 1A2 (Homo sapiens).

Ask | Can you look up the measured AC50 of COc1cnc(-c2ccccn2)nc1Sc1c(Cl)cccc1Cl for me?
Reply | 2.82 µM (inconclusive)

Ask | Same question, Cc1cc(=O)n2c3ccccc3n(CC(O)CN3CCCCC3)c2c1C#N (configuration not stated) this time
Reply | 15.8 µM (inconclusive)

Ask | Same question, O=C(O)Cc1nn(Cc2ccc(Br)cc2F)c(=O)c2ccccc12 this time
Reply | 31.6 µM (inconclusive)

Ask | Same question, O=C(Nc1ccccc1N1CCOCC1)c1ccccc1[N+](=O)[O-] this time
Reply | 12.6 µM (inconclusive)

Ask | Same question, COc1cccc(Nc2ncc3nc(CCc4ccccc4)c(=O)n(Cc4cccs4)c3n2)c1 this time
Reply | 3.16 µM (inconclusive)

Ask | Same question, CC(C)=C1C(=O)NN(c2ccc(F)c(Cl)c2)C1=O this time
Reply | 31.6 µM (inconclusive)

Ask | Same question, O=C1c2cccc([N+](=O)[O-])c2C(=O)N1c1ncn[nH]1 this time
Reply | 3.16 µM (inconclusive)

Ask | Same question, CCCN(CCC)C[C@@H]1CCCCN1CCNC(=O)N1c2ccccc2C(=O)Nc2cccnc21 this time
Reply | 25.1 µM (inconclusive)

Ask | Same question, CC(C)(C)NC[C@@H](O)COc1ccccc1C1CCCC1 this time
Reply | 10 µM (inconclusive)

Ask | Same question, CCOc1ccc(Cc2nccc3cc(OCC)c(OCC)cc23)cc1OCC this time
Reply | 10 µM (inconclusive)

Ask | Same question, COc1cc2c(C(=O)NCc3ccc(C)o3)cn(CC(C)C)c(=O)c2cc1OC this time
Reply | 1.58 µM (inconclusive)

Ask | Same question, O=S(=O)(c1ccccc1)N1CCC2(CCCN(c3ncccn3)C2)CC1 this time
Reply | 15.8 µM (inconclusive)

Data origin, for the record: ChEMBL document CHEMBL1201862
